Target: isolated recombinant JAK1 kinase domain (Homo sapiens, UniProt P23458)
Construct: isolated recombinant JAK1 and JAK2 kinase domain
Sequence (P23458 875-1153 limits assumed): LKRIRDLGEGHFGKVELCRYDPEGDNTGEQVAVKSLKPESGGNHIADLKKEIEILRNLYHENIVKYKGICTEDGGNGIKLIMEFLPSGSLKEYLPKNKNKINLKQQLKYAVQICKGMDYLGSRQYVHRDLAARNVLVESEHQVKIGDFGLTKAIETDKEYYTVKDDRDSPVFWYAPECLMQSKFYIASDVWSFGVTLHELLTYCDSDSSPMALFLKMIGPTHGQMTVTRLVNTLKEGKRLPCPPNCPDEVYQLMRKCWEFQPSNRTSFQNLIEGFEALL
Test: JAK enzyme assay, JAK1 kinase domain (Caliper LabChip)
Settings: 1.5 nM JAK1, ATP 25 μM, Morrison tight binding model
pKi: −log10 of the molar value.
Label 1 when pKi is at or above 9; otherwise label 0.

Example entries begin here.
| molecule | cat |
| --- | --- |
| O=C(Nc1cn(C2CCOC2=O)nc1-c1cc(Cl)ccc1OC(F)F)c1cnn2cccnc12 (single isomer, unassigned) [Example 28] | 1 |
| CSc1ccc(OC(F)F)c(-c2nn(C3CCOC3=O)cc2NC(=O)c2cnn3cccnc23)c1 (single isomer, unassigned) [Example 29] | 1 |
| CN1CCN(C(=O)CN2CCC(n3cc(NC(=O)c4cnn5cccnc45)c(-c4cc(Cl)ccc4OC(F)F)n3)C2=O)CC1 (single isomer, unassigned) [Example 16] | 0 |
| O=C(Nc1cn(C2CCOC2=O)nc1-c1cc2c(cc1OC(F)F)NCCS2)c1cnn2cccnc12 (single isomer, unassigned) [Example 34] | 1 |

Could you now consider this next molecule?
Q: Please check the record O=C(Nc1cn(C2CCOC2=O)nc1-c1cc2c(cc1OC(F)F)NCCS2)c1cnn2cccnc12 (single isomer, unassigned) [Example 33] and state if its pKi is at or above 9.
A: 1

----------
Target: isolated recombinant JAK1 kinase domain (Homo sapiens, UniProt P23458)
Construct: isolated recombinant JAK1 and JAK2 kinase domain
Experiment: JAK enzyme assay, JAK1 kinase domain (Caliper LabChip)
Conditions: 1.5 nM JAK1, ATP 25 μM, Morrison tight binding model
Catalogue of Ki values
Answer with a number only, understood to be in nM.

| molecule | Ki / nM |
| --- | --- |
| O=C(Nc1cn(C2CCOC2=O)nc1-c1cc2c(cc1OC(F)F)NCCO2)c1cnn2cccnc12 (single isomer, unassigned) [Example 38] | 0.6 |

Q: Give the value of Ki reported for the following: CN1CCC(n2cc(NC(=O)c3cnn4cccnc34)c(-c3cc(SC(F)F)ccc3OC(F)F)n2)C1=O (single isomer, unassigned) [Example 18]
A: 0.28

Q: Supply measured Ki of O=C(Nc1cn(C2CCOC2=O)nc1-c1cc(Cl)ccc1OC(F)F)c1cnn2cccnc12 (single isomer, unassigned) [Example 27] in your reply.
A: 0.77

Q: Assign Ki to the following record: O=C(Nc1cn(C2CCOC2=O)nc1-c1cc2c(cc1OC(F)F)NCCO2)c1cnn2cccnc12 (single isomer, unassigned) [Example 39, formic acid]
A: 0.32

Q: Input CN1CCC(n2cc(NC(=O)c3cnn4cccnc34)c(-c3cc(Cl)c(C#N)cc3OC(F)F)n2)C1=O (racemic) , output reported Ki.
A: 2.5

Q: Look up and state reported Ki for CN1CCC(n2cc(NC(=O)c3cnn4cccnc34)c(-c3cc(SC(F)F)ccc3OC(F)F)n2)C1=O (single isomer, unassigned) [Example 19]
A: 2.5

----------
Each record here notes measured pKi.
Biological target: isolated recombinant JAK2 kinase domain (Homo sapiens)
Construct: isolated recombinant JAK1 and JAK2 kinase domain
Sequence (O60674 849-1124 limits assumed): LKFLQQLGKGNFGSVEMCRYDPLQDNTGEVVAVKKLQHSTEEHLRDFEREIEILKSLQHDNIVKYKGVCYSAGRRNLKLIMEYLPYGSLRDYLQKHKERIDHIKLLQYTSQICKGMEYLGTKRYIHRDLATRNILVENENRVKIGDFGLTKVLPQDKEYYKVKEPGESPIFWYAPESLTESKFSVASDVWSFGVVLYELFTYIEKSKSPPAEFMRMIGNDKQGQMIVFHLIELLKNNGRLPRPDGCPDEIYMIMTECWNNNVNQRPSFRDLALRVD
Test: JAK enzyme assay, JAK2 kinase domain (Caliper LabChip)
Format: biochemical
Details: 0.2 nM JAK2, ATP 25 μM, Morrison tight binding model
On this scale, pKi is minus log10 of a concentration expressed in M (mol/L).

| molecule | quantitativeResult |
| --- | --- |
| CN1CCC(n2cc(NC(=O)c3cnn4cccnc34)c(-c3cc(SC(F)F)ccc3OC(F)F)n2)C1=O (single isomer, unassigned) [Example 18] | 9.41 |
| CN1CCC(n2cc(NC(=O)c3cnn4cccnc34)c(-c3cc(SC(F)F)ccc3OC(F)F)n2)C1=O (single isomer, unassigned) [Example 19] | 9.26 |

Now for a further molecule.
Q: Answer with reported pKi of CN1CCCC(n2cc(NC(=O)c3cnn4cccnc34)c(-c3cc(Cl)ccc3OC(F)F)n2)C1=O (single isomer, unassigned) [Example 20]
A: 8.82
